# Tested on: HeLa
# Test protocol: Antiproliferative activity against human HeLa cells assessed as reduction in cell viability by MTT assay
# Format: functional, cell-based
Observable: log10(IC50) (log10 of the value in µM)

Molecule	log10(IC50)
COc1ccc(CN(C(=O)CCC(=O)Nc2ccc(F)cc2)c2cc(OC)c(OC)c(OC)c2)cc1	0.38
COc1cc2c(c(OC)c1OC)-c1ccc(OC)c(=O)cc1[C@@H](NC(C)=O)CC2 [COLCHICINE]	1.51
COc1ccc(CN(C(=O)CCC(=O)Nc2ccc(OC)cc2)c2cc(OC)c(OC)c(OC)c2)cc1	0.92
COc1ccc(CN(C(=O)CCC(=O)Nc2ccc(Br)cc2)c2cc(OC)c(OC)c(OC)c2)cc1	1.32
COc1ccc(CN(C(=O)CCC(=O)Nc2cccc(C)c2)c2cc(OC)c(OC)c(OC)c2)cc1	1.28
COc1ccc(CN(C(=O)CCC(=O)Nc2cccc(OC)c2)c2cc(OC)c(OC)c(OC)c2)cc1	1.08
COc1ccc(CN(C(=O)CCC(=O)Nc2ccccc2)c2cc(OC)c(OC)c(OC)c2)cc1	1.20
COc1ccc(CN(C(=O)CCC(=O)Nc2cc(OC)c(OC)c(OC)c2)c2cc(OC)c(OC)c(OC)c2)cc1	1.76
CC(=O)O[C@H]1C(=O)[C@@]2(C)[C@H]([C@H](OC(=O)c3ccccc3)[C@]3(O)C[C@H](OC(=O)[C@H](O)[C@@H](NC(=O)c4ccccc4)c4ccccc4)C(C)=C1C3(C)C)[C@]1(OC(C)=O)CO[C@@H]1C[C@@H]2O [PACLITAXEL]	1.33
COc1ccc(CN(C(=O)CCC(=O)Nc2ccc(C(F)(F)F)cc2)c2cc(OC)c(OC)c(OC)c2)cc1	0.67
COc1ccc(CN(C(=O)CCC(=O)Nc2ccc(Cl)cc2)c2cc(OC)c(OC)c(OC)c2)cc1	1.14
COc1ccc(CN(C(=O)CCC(=O)Nc2ccccc2OC)c2cc(OC)c(OC)c(OC)c2)cc1	1.68
COc1ccc(CN(C(=O)CCC(=O)Nc2ccccc2Cl)c2cc(OC)c(OC)c(OC)c2)cc1	1.62
COc1ccc(CN(C(=O)CCC(=O)Nc2ccc(O)cc2)c2cc(OC)c(OC)c(OC)c2)cc1	1.07
COc1ccc(CN(C(=O)CCC(=O)Nc2cccc(F)c2)c2cc(OC)c(OC)c(OC)c2)cc1	1.60
COc1ccc(CN(C(=O)CCC(=O)Nc2cccc(Cl)c2)c2cc(OC)c(OC)c(OC)c2)cc1	1.31

###

// reported pIC50 for each item listed
# Tested on: MDA-MB-231
# Test protocol: Antiproliferative activity against human MDA-MB-231 cells assessed as reduction in cell viability by MTT assay
# Assay type: functional, cell-based
pIC50: −log10 of the molar value.

Compound	Value relation sign	pIC50
CC(=O)O[C@H]1C(=O)[C@@]2(C)[C@H]([C@H](OC(=O)c3ccccc3)[C@]3(O)C[C@H](OC(=O)[C@H](O)[C@@H](NC(=O)c4ccccc4)c4ccccc4)C(C)=C1C3(C)C)[C@]1(OC(C)=O)CO[C@@H]1C[C@@H]2O [PACLITAXEL]	=	4.50
COc1ccc(CN(C(=O)C(=O)Nc2ccc(Cl)cc2)c2cc(OC)c(OC)c(OC)c2)cc1	=	4.39
COc1ccc(CN(C(=O)CCC(=O)Nc2ccc(Br)cc2)c2cc(OC)c(OC)c(OC)c2)cc1	=	4.23
COc1ccc(CN(C(=O)CCC(=O)Nc2ccc(OC)cc2)c2cc(OC)c(OC)c(OC)c2)cc1	=	4.50
COc1ccc(CN(C(=O)CCC(=O)Nc2cccc(OC)c2)c2cc(OC)c(OC)c(OC)c2)cc1	=	4.67
COc1ccc(CN(C(=O)CCC(=O)Nc2ccccc2)c2cc(OC)c(OC)c(OC)c2)cc1	=	4.79
COc1ccc(CN(C(=O)CCC(=O)Nc2ccc(O)cc2)c2cc(OC)c(OC)c(OC)c2)cc1	=	4.63
COc1ccc(CN(C(=O)CCC(=O)Nc2ccccc2OC)c2cc(OC)c(OC)c(OC)c2)cc1	=	4.13
COc1ccc(CN(C(=O)CCC(=O)Nc2cc(OC)c(OC)c(OC)c2)c2cc(OC)c(OC)c(OC)c2)cc1	<	4.00
COc1ccc(CN(C(=O)C(=O)Nc2ccc(C)cc2)c2cc(OC)c(OC)c(OC)c2)cc1	=	4.25
